Target: Beta-lactamase VIM-1 (Pseudomonas aeruginosa, UniProt Q9XAY4)
Assay Notes: Inhibition of Pseudomonas aeruginosa VIM-1 beta-lactamase after 10 mins
Reported pIC50 values are given for each entry in this list.
// scale note: pIC50 = -log10(conc_M); give the bare number

Give pIC50 only, for c1cnc2c(c1)ccc1cccnc12 , using Beta-lactamase VIM-1 (Pseudomonas aeruginosa, UniProt Q9XAY4) data.
4.14

Give pIC50 only, for O=C(O)c1cccc(C(=O)O)n1 , using Beta-lactamase VIM-1 (Pseudomonas aeruginosa, UniProt Q9XAY4) data.
4.38

Give pIC50 only, for O=C(O)CN(CCN(CC(=O)O)CC(=O)O)CC(=O)O , using Beta-lactamase VIM-1 (Pseudomonas aeruginosa, UniProt Q9XAY4) data.
5.03

---

Reported MIC values are given for each entry in this list.
System: Escherichia coli
Assay Notes: Antimicrobial activity against Escherichia coli XL1-Blue harboring pUCP carrying VIM-1 gene by Etest method
Format: functional
# number only, unit µg/mL dropped from output

- Compound: "C[C@H]1[C@H](NC(=O)/C(=N\\OC(C)(C)C(=O)O)c2csc(N)n2)C(=O)N1S(=O)(=O)O [AZTREONAM]"
  MIC [µg/mL]: 0.125

// next item, MIC requested
Let me know recorded MIC for C[C@@H](O)[C@H]1C(=O)N2C(C(=O)O)=C(SCCNC=N)C[C@H]12 [IMIPENEM ANHYDROUS] , thanks.
1

---

Reported MIC values are given for each entry in this list.
Test system: Escherichia coli
Assay Notes: Antimicrobial activity against Escherichia coli XL1-Blue harboring pUCP carrying VIM-1 gene by Etest method
Format: functional
# number only, unit µg/mL dropped from output

Worked cases, answers included:
- Compound: "CO/N=C(\\C(=O)N[C@@H]1C(=O)N2C(C(=O)[O-])=C(C[N+]3(C)CCCC3)CS[C@H]12)c1csc(N)n1"
  Target: "Escherichia coli"
  Reported Property: "MIC"
  Value Unit: "µg/mL"
  Result Value: 12
- Compound: "CC(C)(O/N=C(\\C(=O)N[C@@H]1C(=O)N2C(C(=O)[O-])=C(C[n+]3ccccc3)CS[C@H]12)c1csc(N)n1)C(=O)O [CEFTAZIDIME]"
  Target: "Escherichia coli"
  Reported Property: "MIC"
  Value Unit: "µg/mL"
  Result Value: 32
- Compound: "CCN1CCN(C(=O)N[C@@H](C(=O)N[C@@H]2C(=O)N3[C@@H]2SC(C)(C)[C@@H]3C(=O)O)c2ccccc2)C(=O)C1=O [PIPERACILLIN]"
  Target: "Escherichia coli"
  Reported Property: "MIC"
  Value Unit: "µg/mL"
  Result Value: 6

// next item, MIC requested
Give MIC only, for C[C@@H](O)[C@H]1C(=O)N2C(C(=O)O)=C(S[C@@H]3CN[C@H](C(=O)N(C)C)C3)[C@H](C)[C@H]12 [MEROPENEM] , using Escherichia coli data.
0.25
